The reported measurements were obtained from ChEMBL document CHEMBL1143618.

Biological target: Melanocortin receptor 4 (Homo sapiens)
Test: Inhibition of [125I]NDP-alpha-MSH binding to melanocortin-4 receptor expressed in HEK293 cells
Type: cell-based
recorded endpoint: Ki (nM)
Dear colleague, please return just the value in nM, with no unit written.

For the substance `H-GPYRMEHFRWGSPPKD-NH2` , report Ki.
5.28

---

Recorded measurements of pKi, one per entry
Biological target: Melanocyte-stimulating hormone receptor (Homo sapiens, UniProt Q01726)
Sequence (Q01726 whole entry): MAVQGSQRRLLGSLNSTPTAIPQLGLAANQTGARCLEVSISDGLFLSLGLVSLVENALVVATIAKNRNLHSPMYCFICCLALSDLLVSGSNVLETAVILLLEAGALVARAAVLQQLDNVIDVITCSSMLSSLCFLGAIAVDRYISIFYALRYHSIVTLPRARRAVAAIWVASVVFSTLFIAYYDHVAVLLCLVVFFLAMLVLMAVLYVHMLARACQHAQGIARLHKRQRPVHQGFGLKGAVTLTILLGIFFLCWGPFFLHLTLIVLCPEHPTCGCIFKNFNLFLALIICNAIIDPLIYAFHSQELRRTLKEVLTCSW
When answering, recall that pKi equals minus log10 of the concentration in mol/L, and write that number alone.

The examples below pair each entry with its known result.
{"columns": ["smiles input", "recorded endpoint", "value observed"],
 "data": [
  ["CC(=O)N[C@@H](Cc1ccc(O)cc1)C(=O)N[C@@H](CCCNC(=N)N)C(=O)N[C@H]1CSSC[C@@H](C(N)=O)NC(=O)[C@H](Cc2c[nH]c3ccccc23)NC(=O)[C@H](CCCNC(=N)N)NC(=O)[C@@H](Cc2ccccc2)NC(=O)[C@H](Cc2c[nH]cn2)NC(=O)[C@H](CCC(=O)O)NC1=O", "pKi", 7.77],
  ["CC(=O)N[C@@H](Cc1ccc(O)cc1)C(=O)N[C@@H](CCCCN)C(=O)N[C@H]1CSSC[C@@H](C(N)=O)NC(=O)[C@H](Cc2c[nH]c3ccccc23)NC(=O)[C@H](CCCNC(=N)N)NC(=O)[C@@H](Cc2ccccc2)NC(=O)[C@H](Cc2c[nH]cn2)NC(=O)[C@H](CCC(=O)O)NC1=O", "pKi", 7.80]
]}

For the next question, use this compound.
For the compound `CC(=O)N[C@H]1CSSC[C@@H](C(N)=O)NC(=O)[C@H](Cc2c[nH]c3ccccc23)NC(=O)[C@H](CCCNC(=N)N)NC(=O)[C@@H](Cc2ccccc2)NC(=O)[C@H](Cc2c[nH]cn2)NC(=O)[C@H](CCC(=O)O)NC1=O` , report pKi.
7.17

---

Target: Melanocortin receptor 4 (Homo sapiens)
Experiment: Agonist activity at human Melanocortin-4 receptor as peptide required for 50% maximal cAMP release (n > or =2)
recorded endpoint: pEC50
When answering, recall that pEC50 equals minus log10 of the concentration in mol/L, and write that number alone.

{"columns": ["smiles input", "pEC50"],
 "data": [
  ["CSCC[C@H](NC(=O)[C@H](CCCNC(=N)N)NC(=O)[C@H](Cc1ccc(O)cc1)NC(C)=O)C(=O)N[C@@H](CCC(=O)O)C(=O)N[C@@H](Cc1cnc[nH]1)C(=O)N[C@H](Cc1ccccc1)C(=O)N[C@@H](CCCNC(=N)N)C(=O)N[C@@H](Cc1c[nH]c2ccccc12)C(=O)NCC(N)=O", 9.80],
  ["CC(=O)N[C@@H](Cc1ccc(O)cc1)C(=O)N[C@@H](CCCCN)C(=O)N[C@H]1CSSC[C@@H](C(N)=O)NC(=O)[C@H](Cc2c[nH]c3ccccc23)NC(=O)[C@H](CCCNC(=N)N)NC(=O)[C@@H](Cc2ccccc2)NC(=O)[C@H](Cc2c[nH]cn2)NC(=O)[C@H](CCC(=O)O)NC1=O", 10.00],
  ["CC(=O)N[C@@H](Cc1ccc(O)cc1)C(=O)N[C@@H](CCCN=C(N)N)C(=O)N[C@H]1CSSC[C@@H](C(N)=O)NC(=O)[C@H](Cc2c[nH]c3ccccc23)NC(=O)[C@H](CCCN=C(N)N)NC(=O)[C@@H](Cc2ccc3ccccc3c2)NC(=O)[C@H](Cc2c[nH]cn2)NC(=O)[C@H](CCC(=O)O)NC1=O", 9.19]
]}

For the next question, use this compound.
State, for Melanocortin receptor 4 (Homo sapiens), measured pEC50 of the compound listed here: `CSC[C@H](NC(=O)[C@H](Cc1c[nH]c2ccccc12)NC(=O)[C@H](CCCNC(=N)N)NC(=O)[C@@H](Cc1ccccc1)NC(=O)[C@H](Cc1cnc[nH]1)NC(=O)[C@H](CCC(=O)O)NC(=O)[C@H](CSC)NC(=O)[C@H](CCCNC(=N)N)NC(=O)[C@H](Cc1ccc(O)cc1)NC(C)=O)C(N)=O`
9.04

---

Biological target: Melanocortin receptor 4 (Homo sapiens)
Test: Agonist activity at human Melanocortin-4 receptor as peptide required for 50% maximal cAMP release (n > or =2)
EC50 under 0.3 nM gets Met, anything at or over 0.3 nM gets Not met.

Examples with answers:
{"columns": ["smiles input", "assigned label"],
 "data": [
  ["CC(=O)N[C@@H](Cc1ccc(O)cc1)C(=O)N[C@@H](CCCNC(=N)N)C(=O)N[C@H]1CSSC[C@@H](C(N)=O)NC(=O)[C@H](Cc2c[nH]c3ccccc23)NC(=O)[C@H](CCCNC(=N)N)NC(=O)[C@@H](Cc2ccc(F)cc2)NC(=O)[C@H](Cc2c[nH]cn2)NC(=O)[C@H](CCC(=O)O)NC1=O", "Met"],
  ["CC(=O)N[C@@H](Cc1ccc(O)cc1)C(=O)N[C@@H](CCCNC(=N)N)C(=O)N[C@H]1CSSC[C@@H](C(N)=O)NC(=O)[C@H](Cc2c[nH]c3ccccc23)NC(=O)[C@H](CCCNC(=N)N)NC(=O)[C@@H](Cc2ccc(Cl)cc2)NC(=O)[C@H](Cc2c[nH]cn2)NC(=O)[C@H](CCC(=O)O)NC1=O", "Met"],
  ["CC(=O)N[C@@H](Cc1ccc(O)cc1)C(=O)N[C@@H](CCCNC(N)=O)C(=O)N[C@H]1CSSC[C@@H](C(N)=O)NC(=O)[C@H](Cc2c[nH]c3ccccc23)NC(=O)[C@H](CCCNC(=N)N)NC(=O)[C@@H](Cc2ccccc2)NC(=O)[C@H](Cc2c[nH]cn2)NC(=O)[C@H](CCC(=O)O)NC1=O", "Not met"]
]}

# strict comparison: is reported EC50 < 0.3 nM? input = `CC(=O)N[C@@H](Cc1ccc(O)cc1)C(=O)N[C@@H](CCCNC(=N)N)C(=O)N[C@H]1CSSC[C@@H](C(N)=O)NC(=O)[C@H](Cc2c[nH]c3ccccc23)NC(=O)[C@H](CCCNC(=N)N)NC(=O)[C@@H](Cc2ccccc2)NC(=O)[C@H](Cc2c[nH]cn2)NC(=O)[C@H](CCC(=O)O)NC1=O`
Met

# strict comparison: is reported EC50 < 0.3 nM? input = `CSCC[C@H](NC(=O)[C@H](CCCNC(=N)N)NC(=O)[C@H](Cc1ccc(O)cc1)NC(C)=O)C(=O)N[C@@H](CCC(=O)O)C(=O)N[C@@H](Cc1cnc[nH]1)C(=O)N[C@H](Cc1ccccc1)C(=O)N[C@@H](CCCNC(=N)N)C(=O)N[C@@H](Cc1c[nH]c2ccccc12)C(=O)NCC(=O)N[C@@H](CO)C(=O)N1CCC[C@H]1C(=O)N1CCC[C@H]1C(=O)N[C@@H](CCCCN)C(=O)N[C@@H](CC(=O)O)C(N)=O`
Not met

# strict comparison: is reported EC50 < 0.3 nM? input = `CC(=O)N[C@@H](Cc1ccc(O)cc1)C(=O)N[C@@H](CCCN=C(N)N)C(=O)N[C@H]1CSSC[C@@H](C(N)=O)NC(=O)[C@H](Cc2c[nH]c3ccccc23)NC(=O)[C@H](CCCN=C(N)N)NC(=O)[C@H](Cc2ccccc2)NC(=O)[C@H](Cc2c[nH]cn2)NC(=O)[C@H](CCC(=O)O)NC1=O`
Not met

---

Molecular target: Melanocortin receptor 4 (Homo sapiens)
Assay: Agonist activity at human Melanocortin-4 receptor as peptide required for 50% maximal cAMP release (n > or =2)
Recorded measurements of EC50, one per entry
Dear colleague, please return just the value in nM, with no unit written.

{"columns": ["smiles input", "units label", "EC50"],
 "data": [
  ["CC(=O)N[C@@H](Cc1ccc(O)cc1)C(=O)N[C@@H](CCCNC(=N)N)C(=O)N[C@H]1CSSC[C@@H](C(N)=O)NC(=O)[C@H](Cc2c[nH]c3ccccc23)NC(=O)[C@H](CCCNC(=N)N)NC(=O)[C@@H](Cc2ccccc2)NC(=O)[C@H](Cc2cncn2C)NC(=O)[C@H](CCC(=O)O)NC1=O", "nM", 0.54]
]}

For the compound `CC(=O)N[C@@H](Cc1ccc(O)cc1)C(=O)N[C@@H](CCCN=C(N)N)C(=O)N[C@H]1CSSC[C@@H](C(=O)N[C@@H](CO)C(=O)N2CCC[C@H]2C(=O)N2CCC[C@H]2C(=O)N[C@@H](CCCCN)C(=O)N[C@@H](CC(=O)O)C(N)=O)NC(=O)[C@H](Cc2c[nH]c3ccccc23)NC(=O)[C@H](CCCN=C(N)N)NC(=O)[C@@H](Cc2ccccc2)NC(=O)[C@H](Cc2c[nH]cn2)NC(=O)[C@H](CCC(=O)O)NC1=O` , report EC50.
0.24

---

Recorded measurements of Ki, one per entry
Target: Melanocortin receptor 4 (Homo sapiens, UniProt P32245)
Sequence (P32245 whole entry): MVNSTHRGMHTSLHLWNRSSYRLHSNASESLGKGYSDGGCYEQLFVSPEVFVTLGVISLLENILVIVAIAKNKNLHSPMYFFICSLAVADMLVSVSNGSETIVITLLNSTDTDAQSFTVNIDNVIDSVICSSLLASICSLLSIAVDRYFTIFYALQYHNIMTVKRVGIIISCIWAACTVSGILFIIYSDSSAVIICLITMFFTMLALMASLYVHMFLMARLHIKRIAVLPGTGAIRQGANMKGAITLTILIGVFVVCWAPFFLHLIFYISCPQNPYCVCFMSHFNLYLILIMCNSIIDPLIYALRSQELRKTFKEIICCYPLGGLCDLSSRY
Dear colleague, please return just the value in nM, with no unit written.

{"columns": ["smiles input", "Ki, nM"],
 "data": [
  ["CC(=O)N[C@@H](Cc1ccc(O)cc1)C(=O)N[C@@H](CCCNC(=N)N)C(=O)N[C@H]1CSSC[C@@H](C(N)=O)NC(=O)[C@H](Cc2c[nH]c3ccccc23)NC(=O)[C@H](CCCNC(=N)N)NC(=O)[C@@H](Cc2ccccc2)NC(=O)[C@H](Cc2c[nH]cn2)NC(=O)[C@H](CCC(=O)O)NC1=O", 0.77]
]}

State, for Melanocortin receptor 4 (Homo sapiens, UniProt P32245), measured Ki of the compound listed here: `CC(=O)N[C@@H](Cc1ccc(O)cc1)C(=O)N[C@@H](CCCN=C(N)N)C(=O)N[C@H]1CSSC[C@@H](C(N)=O)NC(=O)[C@H](Cc2c[nH]c3ccccc23)NC(=O)[C@H](CCCN=C(N)N)NC(=O)[C@H](Cc2ccccc2)NC(=O)[C@H](Cc2c[nH]cn2)NC(=O)[C@H](CCC(=O)O)NC1=O`
30.5

State, for Melanocortin receptor 4 (Homo sapiens, UniProt P32245), measured Ki of the compound listed here: `CC(=O)N[C@@H](Cc1ccc(O)cc1)C(=O)N[C@@H](CCCN=C(N)N)C(=O)N[C@H]1CSSC[C@@H](C(=O)N[C@@H](CO)C(=O)N2CCC[C@H]2C(=O)N2CCC[C@H]2C(=O)N[C@@H](CCCCN)C(=O)N[C@@H](CC(=O)O)C(N)=O)NC(=O)[C@H](Cc2c[nH]c3ccccc23)NC(=O)[C@H](CCCN=C(N)N)NC(=O)[C@@H](Cc2ccccc2)NC(=O)[C@H](Cc2c[nH]cn2)NC(=O)[C@H](CCC(=O)O)NC1=O`
0.52

State, for Melanocortin receptor 4 (Homo sapiens, UniProt P32245), measured Ki of the compound listed here: `CC(=O)N[C@@H](Cc1ccc(O)cc1)C(=O)N[C@@H](CCCNC(=N)N)C(=O)N[C@H]1CSSC[C@@H](C(N)=O)NC(=O)[C@H](Cc2c[nH]c3ccccc23)NC(=O)[C@H](CCCNC(=N)N)NC(=O)[C@@H](Cc2ccc(Cl)cc2)NC(=O)[C@H](Cc2c[nH]cn2)NC(=O)[C@H](CCC(=O)O)NC1=O`
0.14

State, for Melanocortin receptor 4 (Homo sapiens, UniProt P32245), measured Ki of the compound listed here: `CC(=O)N[C@@H](Cc1ccc(O)cc1)C(=O)N[C@@H](CCCNC(N)=O)C(=O)N[C@H]1CSSC[C@@H](C(N)=O)NC(=O)[C@H](Cc2c[nH]c3ccccc23)NC(=O)[C@H](CCCNC(=N)N)NC(=O)[C@@H](Cc2ccccc2)NC(=O)[C@H](Cc2c[nH]cn2)NC(=O)[C@H](CCC(=O)O)NC1=O`
2.54
